# Target Or Test System: UniProtKB O14727
# Sequence (O14727 whole entry): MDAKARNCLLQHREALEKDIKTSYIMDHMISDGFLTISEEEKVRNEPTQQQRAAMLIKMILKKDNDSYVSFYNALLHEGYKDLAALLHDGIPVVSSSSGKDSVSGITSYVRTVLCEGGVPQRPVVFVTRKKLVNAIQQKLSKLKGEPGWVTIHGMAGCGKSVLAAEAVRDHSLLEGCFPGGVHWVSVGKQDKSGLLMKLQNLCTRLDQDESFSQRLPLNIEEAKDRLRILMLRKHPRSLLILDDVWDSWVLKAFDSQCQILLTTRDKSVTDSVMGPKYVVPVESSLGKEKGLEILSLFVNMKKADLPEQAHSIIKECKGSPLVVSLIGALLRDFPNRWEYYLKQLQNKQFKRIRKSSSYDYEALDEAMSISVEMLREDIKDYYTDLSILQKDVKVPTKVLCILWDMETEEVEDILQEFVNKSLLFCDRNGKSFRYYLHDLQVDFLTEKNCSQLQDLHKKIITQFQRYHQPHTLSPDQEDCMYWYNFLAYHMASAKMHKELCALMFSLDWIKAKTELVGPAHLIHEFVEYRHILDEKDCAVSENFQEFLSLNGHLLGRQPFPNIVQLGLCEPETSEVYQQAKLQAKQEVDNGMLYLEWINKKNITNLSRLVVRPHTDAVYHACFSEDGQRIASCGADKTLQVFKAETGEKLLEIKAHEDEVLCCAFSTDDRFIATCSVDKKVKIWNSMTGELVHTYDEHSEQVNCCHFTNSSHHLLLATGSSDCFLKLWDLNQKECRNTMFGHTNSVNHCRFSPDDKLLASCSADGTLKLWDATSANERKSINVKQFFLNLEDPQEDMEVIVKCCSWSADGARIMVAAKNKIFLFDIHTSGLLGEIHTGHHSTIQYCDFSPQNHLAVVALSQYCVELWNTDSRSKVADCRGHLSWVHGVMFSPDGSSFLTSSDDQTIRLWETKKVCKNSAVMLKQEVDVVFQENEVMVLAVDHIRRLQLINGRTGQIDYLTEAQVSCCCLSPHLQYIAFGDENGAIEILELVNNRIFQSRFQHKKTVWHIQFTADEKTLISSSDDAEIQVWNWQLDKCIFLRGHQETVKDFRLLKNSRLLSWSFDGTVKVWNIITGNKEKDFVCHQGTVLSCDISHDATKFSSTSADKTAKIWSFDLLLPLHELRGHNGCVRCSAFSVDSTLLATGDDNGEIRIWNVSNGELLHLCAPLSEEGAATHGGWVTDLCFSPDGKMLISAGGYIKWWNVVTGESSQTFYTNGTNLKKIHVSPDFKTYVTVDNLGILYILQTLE
# Measurement Notes: activation of Apaf-1 mediated apoptosis – fluorescent, uHTS hits, dose response (AID 588554)
Measurement Kind: EC50 (µM)
Your answer is read as µM, so omit the unit and give the number.

Recorded results for 2 compounds are shown here.
INSERT INTO results (compound, measurement_kind, endpoint_result) VALUES
  ('CSc1ccc(CN=Nc2ccc(S(=O)(=O)Nc3ccccc3C(=O)O)cc2[N+](=O)[O-])cc1 [MLS002245633]', 'EC50', 8.23),
  ('O=C(NN=CC1C=C(Cl)C=C([N+](=O)[O-])C1=O)NC12CC3CC(CC(C3)C1)C2 (stereo not drawn)', 'EC50', 6.87);

Next compound, EC50 to be filled in.
# lookup: EC50 of CCOc1ccc(C(=O)CC=Nc2ccc(S(=O)(=O)NC(=N)N)cc2)cc1
6.28
